MIC values, listed per item
# Test system: Staphylococcus aureus
# test_method_notes: Antibacterial activity against methicillin-resistant Staphylococcus aureus clinical isolate 12 measured after 18 hrs by CLSI based broth microdilution method
# Format: functional
quantity_name: MIC (µg/mL)

[[record]]
smiles_representation = "CCCCCNC(=O)C[N+](C)(C)CCCCCOc1ccc2ccc(=O)oc2c1CC=C(C)C.[Br-]"
numeric_result = 4

[[record]]
smiles_representation = "CCCCN(CCCC)C(=O)C[N+](C)(C)CCCOc1ccc2ccc(=O)oc2c1CC=C(C)C.[Br-]"
numeric_result = 8

[[record]]
smiles_representation = "CCCNC(=O)C[N+](C)(C)CCCCCOc1ccc2ccc(=O)oc2c1CC=C(C)C.[Br-]"
numeric_result = 32

[[record]]
smiles_representation = "CCCN(CCC)C(=O)C[N+](C)(C)CCCOc1ccc2ccc(=O)oc2c1CC=C(C)C.[Br-]"
numeric_result = 32

[[record]]
smiles_representation = "CCN(CC)C(=O)C[N+](C)(C)CCCOc1ccc2ccc(=O)oc2c1CC=C(C)C.[Br-]"
numeric_result = 128


The measurements presented in this section are drawn from ChEMBL document CHEMBL5500372.
